Task for the reader: assign each of the following variants its reported protein stability index.
B1: DLC1 (parent)
chain: RDAIEALCRRLNTLNKCAVMKLEI

Variants of: B1
TEST_SUMMARY: protein stability index of a GFP-peptide fusion (GPS, HEK-293T) (PSI 1-6); higher = more stable;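 also: lentivirally expressed fusions sorted by FACS into six bins by GFP to DsRed ratio, PSI derived from sequencing read proportions per bin multiplied by bin number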
APPLIED_CONDITIONS: c terminus: a fixed tail appended

// for each variant in input: emit protein stability index
1. L11H
2. M20F
3. D2Q
4. A6P
5. L7P
6. C17A
7. A3K
8. I24E

Found:
1. 1.6
2. 3.51
3. 2.74
4. 3.8
5. 2.31
6. 1.16
7. 2.7
8. 1.36

// for each variant in input: emit protein stability index
1. I24R
2. K21L
3. R9H
4. L11E
5. K21I
6. K16G

Found:
1.5
2.53
3.54
1.84
2.1
3.19

// for each variant in input: emit protein stability index
1. R9S
2. T13K
3. R1P
4. N15K
5. L22N

Found:
4.18
1.55
2.85
2.63
1.54
